Values from ChEMBL document CHEMBL1138628

measured-target: Tyrosine-protein phosphatase non-receptor type 1 (Homo sapiens) (UniProt P18031)
Sequence (P18031 whole entry): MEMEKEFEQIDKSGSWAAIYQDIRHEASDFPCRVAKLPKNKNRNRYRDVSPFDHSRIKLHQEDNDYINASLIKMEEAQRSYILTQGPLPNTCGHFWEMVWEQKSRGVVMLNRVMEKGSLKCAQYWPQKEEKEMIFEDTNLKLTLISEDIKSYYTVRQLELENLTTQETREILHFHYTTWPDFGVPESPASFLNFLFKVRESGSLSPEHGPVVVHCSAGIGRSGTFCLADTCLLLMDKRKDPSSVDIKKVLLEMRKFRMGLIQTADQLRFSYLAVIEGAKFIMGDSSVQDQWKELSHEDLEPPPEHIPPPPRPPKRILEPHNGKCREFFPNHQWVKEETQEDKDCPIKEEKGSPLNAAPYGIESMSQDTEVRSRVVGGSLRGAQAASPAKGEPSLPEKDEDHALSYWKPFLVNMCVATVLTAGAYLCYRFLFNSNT
test-description: Inhibition of human recombinant PTP1B expressed in Escherichia coli TB1 assessed as residual activity at 40 uM
Active and inactive are the calls of the source. The calls are words filed in the database; no cut-off is given here.
Outcome (select one): Yes = active, No = inactive

CCOc1ccc2nc(NS(=O)(=O)c3ccc(Cl)cc3)sc2c1
No
COc1ccc2nc(NS(=O)(=O)c3ccc([N+](=O)[O-])cc3)sc2c1
No
CC(=O)Nc1ccc(S(=O)(=O)Nc2nc3ccc([N+](=O)[O-])cc3s2)cc1
No

Tell me the recorded outcome of this test for O=[N+]([O-])c1ccc(S(=O)(=O)Nc2nc3ccc(Cl)cc3s2)cc1 . No

Again, but for CCOc1ccc2nc(NS(=O)(=O)c3ccc([N+](=O)[O-])cc3)sc2c1 Yes

Cc1ccc2nc(NS(=O)(=O)c3ccc([N+](=O)[O-])cc3)sc2c1 , same question. Yes
